# system.tested: AtWRKY1 101-339 (Arabidopsis, UniProt Q9SI37-2 101-339)
# Sequence (Q9SI37 other isoform, or with tags, fused parts or gaps): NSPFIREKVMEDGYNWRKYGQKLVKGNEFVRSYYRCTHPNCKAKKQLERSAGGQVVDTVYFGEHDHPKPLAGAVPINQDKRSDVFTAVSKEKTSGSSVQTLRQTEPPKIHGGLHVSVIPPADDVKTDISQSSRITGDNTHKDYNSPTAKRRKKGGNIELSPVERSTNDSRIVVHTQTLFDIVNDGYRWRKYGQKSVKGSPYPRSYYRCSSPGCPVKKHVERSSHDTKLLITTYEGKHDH
# measurement.notes: ITC; N=0.5, two DNA per protein; 0.11 mM protein into 0.026 mM DNA; ITC: 25 mM HEPES pH 7.0, 100 mM NaCl, 20 C, 0.25 mM protein into 0.026 mM DNA; EMSA: 25 mM HEPES pH 7.0, 100 mM NaCl, 5% glycerol, 6 pmol DNA in 6 ul, 4 C 20 min
# run.parameters: protein: recombinant; tags: C-terminal His; blunt
property.name: Kd

Q: What value of Kd has been reported for the following binder? W-box DNA for ITC (dsDNA) DNA 1: CGCCTTTGACCAGCGC DNA 2: GCGCTGGTCAAAGGCG
Result: 500 nM
